Where these numbers come from: the supplement of paper PMC10307832

Test system: NCI-H661
Measurement protocol: relative viability (nuclei count vs DMSO), 5 days (fraction); higher = more cells survive
Settings: first compound 2.53 µM
Observation type: relative viability
The response must contain the number and no unit.

Below, each entry is followed by its recorded relative viability result.
Nc1cccc2c1CN(C1CCC(=O)NC1=O)C2=O (stereo not given) [Lenalidomide] + Nc1ncn([C@H]2C[C@H](O)[C@@H](CO)O2)c(=O)n1 [Decitabine] (partner 2 µM) ... 0.621
Nc1cccc2c1CN(C1CCC(=O)NC1=O)C2=O (stereo not given) [Lenalidomide] + C[C@]1(O)C[C@@H](c2nc(-c3ccc4ccc(-c5ccccc5)nc4c3)c3c(N)nccn32)C1 [Linsitinib] (partner 1 µM) ... 0.59
Nc1cccc2c1CN(C1CCC(=O)NC1=O)C2=O (stereo not given) [Lenalidomide] + Cc1nc(Nc2ncc(C(=O)Nc3c(C)cccc3Cl)s2)cc(N2CCN(CCO)CC2)n1 [Dasatinib] (partner 0.075 µM) ... 0.918

Asked: Test system NCI-H661; read-out relative viability; what value for Nc1cccc2c1CN(C1CCC(=O)NC1=O)C2=O (stereo not given) [Lenalidomide] + Cc1nc(NC(=O)N2CCC[C@H]2C(N)=O)sc1-c1ccnc(C(C)(C)C(F)(F)F)c1 [Alpelisib] (partner 2 µM) ?
Given back: 0.458

Asked: Give the reported relative viability for Nc1cccc2c1CN(C1CCC(=O)NC1=O)C2=O (stereo not given) [Lenalidomide] + CCNC(=O)c1noc(-c2cc(C(C)C)c(O)cc2O)c1-c1ccc(CN2CCOCC2)cc1 [Luminespib] (partner 0.01 µM) (system: NCI-H661).
Given back: 0.847

----------
System: HCC-78
Measurement protocol: relative viability (nuclei count vs DMSO), 5 days (fraction); higher = more cells survive
Settings: first compound 0.002 µM
Label rule met when relative viability is strictly below 0.4; otherwise label rule not met.

Below, 4 molecules whose answers are already recorded.
CCNC(=O)c1noc(-c2cc(C(C)C)c(O)cc2O)c1-c1ccc(CN2CCOCC2)cc1 [Luminespib] + Cc1nc(NC(=O)N2CCC[C@H]2C(N)=O)sc1-c1ccnc(C(C)(C)C(F)(F)F)c1 [Alpelisib] (partner 2 µM) ... rule met
CCNC(=O)c1noc(-c2cc(C(C)C)c(O)cc2O)c1-c1ccc(CN2CCOCC2)cc1 [Luminespib] + COc1cccc2cc(-c3nc([C@H]4CC[C@H](C(=O)O)CC4)n4ncnc(N)c34)[nH]c12 [OSI-027] (partner 0.5 µM) ... rule met
CCNC(=O)c1noc(-c2cc(C(C)C)c(O)cc2O)c1-c1ccc(CN2CCOCC2)cc1 [Luminespib] + CC(C)C[C@H](NC(=O)[C@H](Cc1ccccc1)NC(=O)c1cnccn1)B(O)O [Bortezomib] (partner 0.002 µM) ... rule not met
CCNC(=O)c1noc(-c2cc(C(C)C)c(O)cc2O)c1-c1ccc(CN2CCOCC2)cc1 [Luminespib] + CS(=O)(=O)N1CCN(Cc2cc3nc(-c4cccc5[nH]ncc45)nc(N4CCOCC4)c3s2)CC1 [Pictilisib] (partner 1 µM) ... rule met

Shift focus to the following entry.
Asked: # TODO verify relative viability < 0.4 strictly for this molecule: CCNC(=O)c1noc(-c2cc(C(C)C)c(O)cc2O)c1-c1ccc(CN2CCOCC2)cc1 [Luminespib] + N=C(N)NC(=N)NCCc1ccccc1 [Phenformin] (partner 250 µM)
Given back: rule not met

----------
System: LK-2
Measurement protocol: relative viability (nuclei count vs DMSO), 5 days (fraction); higher = more cells survive
Settings: first compound 0.6325 µM
Observation type: relative viability
Format: numeric value only, no unit, no commentary.

Cc1csc(=NC2CCCCC2)n1/N=C/c1ccc(O)c(O)c1O [MIM1] + Cc1nc(NC(=O)N2CCC[C@H]2C(N)=O)sc1-c1ccnc(C(C)(C)C(F)(F)F)c1 [Alpelisib] (partner 2 µM) ... 1.04
CN1CCN(CCOc2cc(OC3CCOCC3)c3c(Nc4c(Cl)ccc5c4OCO5)ncnc3c2)CC1 [Saracatinib] + CS(=O)(=O)CCNCc1ccc(-c2ccc3ncnc(Nc4ccc(OCc5cccc(F)c5)c(Cl)c4)c3c2)o1 [Lapatinib] (partner 2 µM) ... 0.725
CN1CCN(CCOc2cc(OC3CCOCC3)c3c(Nc4c(Cl)ccc5c4OCO5)ncnc3c2)CC1 [Saracatinib] + COc1cccc2cc(-c3nc([C@H]4CC[C@H](C(=O)O)CC4)n4ncnc(N)c34)[nH]c12 [OSI-027] (partner 0.5 µM) ... 0.161

Asked: Requested read-out: relative viability. Entry: CN1CCN(CCOc2cc(OC3CCOCC3)c3c(Nc4c(Cl)ccc5c4OCO5)ncnc3c2)CC1 [Saracatinib] + Nc1ncn([C@H]2C[C@H](O)[C@@H](CO)O2)c(=O)n1 [Decitabine] (partner 2 µM)
Given back: 0.172

----------
Property: relative viability; scope: individual molecules
System: HCC-827
Measurement protocol: relative viability (nuclei count vs DMSO), 5 days (fraction); higher = more cells survive
Settings: first compound 0.002 µM
// return just the number, without any unit appended

CCNC(=O)c1noc(-c2cc(C(C)C)c(O)cc2O)c1-c1ccc(CN2CCOCC2)cc1 [Luminespib] + Nc1ncn([C@H]2C[C@H](O)[C@@H](CO)O2)c(=O)n1 [Decitabine] (partner 2 µM) ... 0.36

Asked: Please give the measured relative viability for this molecule: CCNC(=O)c1noc(-c2cc(C(C)C)c(O)cc2O)c1-c1ccc(CN2CCOCC2)cc1 [Luminespib] + CS(=O)(=O)N1CCN(Cc2cc3nc(-c4cccc5[nH]ncc45)nc(N4CCOCC4)c3s2)CC1 [Pictilisib] (partner 1 µM)
Given back: 0.949

Asked: Consider the molecule CCNC(=O)c1noc(-c2cc(C(C)C)c(O)cc2O)c1-c1ccc(CN2CCOCC2)cc1 [Luminespib] + Cc1nc(Nc2ncc(C(=O)Nc3c(C)cccc3Cl)s2)cc(N2CCN(CCO)CC2)n1 [Dasatinib] (partner 0.075 µM) and give its measured relative viability.
Given back: 0.217

----------
System: NCI-H322M
Measurement protocol: relative viability (nuclei count vs DMSO), 5 days (fraction); higher = more cells survive
Settings: first compound 8 µM
Observation type: relative viability

Solved entries (count: 2):
Nc1cccc2c1CN(C1CCC(=O)NC1=O)C2=O (stereo not drawn) [Lenalidomide] + Nc1nc2[nH]cc(CCc3ccc(C(=O)N[C@@H](CCC(=O)O)C(=O)O)cc3)c2c(=O)[nH]1 [Pemetrexed] (partner 0.2 µM) ... 0.697
Nc1cccc2c1CN(C1CCC(=O)NC1=O)C2=O (stereo not drawn) [Lenalidomide] + COc1cc2c(Oc3ccc(NC(=O)C4(C(=O)Nc5ccc(F)cc5)CC4)cc3F)ccnc2cc1OCCCN1CCOCC1 [Foretinib] (partner 0.25 µM) ... 0.902

We now examine a further compound.
Asked: For Nc1cccc2c1CN(C1CCC(=O)NC1=O)C2=O (stereo not drawn) [Lenalidomide] + Nc1ncn([C@H]2C[C@H](O)[C@@H](CO)O2)c(=O)n1 [Decitabine] (partner 2 µM) , what is its reported relative viability?
Given back: 0.688

----------
Tested on: NCI-H2023
Measurement protocol: relative viability (nuclei count vs DMSO), 5 days (fraction); higher = more cells survive
Settings: first compound 2 µM
Observation type: relative viability
Note: the reply should be a number with no unit written.

Before answering, review these 5 worked examples.
CN1CCN(CCOc2cc(OC3CCOCC3)c3c(Nc4c(Cl)ccc5c4OCO5)ncnc3c2)CC1 [Saracatinib] + CS(=O)(=O)CCNCc1ccc(-c2ccc3ncnc(Nc4ccc(OCc5cccc(F)c5)c(Cl)c4)c3c2)o1 [Lapatinib] (partner 2 µM) ... 0.698
CN1CCN(CCOc2cc(OC3CCOCC3)c3c(Nc4c(Cl)ccc5c4OCO5)ncnc3c2)CC1 [Saracatinib] + CC(=O)c1c(C)c2cnc(Nc3ccc(N4CCNCC4)cn3)nc2n(C2CCCC2)c1=O [Palbociclib] (partner 0.5 µM) ... 0.19
CN1CCN(CCOc2cc(OC3CCOCC3)c3c(Nc4c(Cl)ccc5c4OCO5)ncnc3c2)CC1 [Saracatinib] + C[C@@H](Oc1cc(-c2cnn(C3CCNCC3)c2)cnc1N)c1c(Cl)ccc(F)c1Cl [Crizotinib] (partner 1 µM) ... 0.356
Cc1csc(=NC2CCCCC2)n1/N=C/c1ccc(O)c(O)c1O [MIM1] + Nc1nc2[nH]cc(CCc3ccc(C(=O)N[C@@H](CCC(=O)O)C(=O)O)cc3)c2c(=O)[nH]1 [Pemetrexed] (partner 0.2 µM) ... 0.219
Cc1csc(=NC2CCCCC2)n1/N=C/c1ccc(O)c(O)c1O [MIM1] + Nc1ncn([C@H]2C[C@H](O)[C@@H](CO)O2)c(=O)n1 [Decitabine] (partner 2 µM) ... 0.212

Asked: So what does the record say about relative viability for Cc1csc(=NC2CCCCC2)n1/N=C/c1ccc(O)c(O)c1O [MIM1] + Cc1nc(NC(=O)N2CCC[C@H]2C(N)=O)sc1-c1ccnc(C(C)(C)C(F)(F)F)c1 [Alpelisib] (partner 2 µM) ?
Given back: 0.526

Asked: Using the record for Cc1csc(=NC2CCCCC2)n1/N=C/c1ccc(O)c(O)c1O [MIM1] + Cc1cc(Nc2cc(N3CCN(C)CC3)nc(Sc3ccc(NC(=O)C4CC4)cc3)n2)n[nH]1 [Tozasertib] (partner 0.1 µM) , report its relative viability.
Given back: 0.3
